Source of measurements: paper PMC8012405

tested on: Bcan-Ntrk1 mouse glioma cells; test: Cell-Titer-Glo proliferation assay, Bcan-Ntrk1 mouse glioma cells; assay type: cell-based; conditions: Bcan-Ntrk1, Trka xDFG single and double (xDFG and solvent front) mutant cells; 72 hours
Parameter: Sensitivity of cell proliferation

Some solved entries appear below for comparison.
Compound: Cc1ccc(C(=O)Nc2ccc(CN3CCN(C)CC3)c(C(F)(F)F)c2)cc1C#Cc1cnc2cccnn12
Sensitivity of cell proliferation: sensitive
//
Compound: COc1cc2c(Oc3ccc(NC(=O)C4(C(=O)Nc5ccc(F)cc5)CC4)cc3F)ccnc2cc1OCCCN1CCOCC1
Sensitivity of cell proliferation: sensitive
//
Compound: COc1cc2nccc(Oc3ccc(NC(=O)C4(C(=O)Nc5ccc(F)cc5)CC4)cc3)c2cc1OC [cabozantinib]
Sensitivity of cell proliferation: sensitive
//
Compound: C[C@@H]1CCc2ncc(F)cc2[C@H]2CCCN2c2ccn3ncc(c3n2)C(=O)N1
Sensitivity of cell proliferation: resistant

Read the next record carefully.
Any idea what Sensitivity of cell proliferation was measured for `C[C@H]1CNC(=O)c2cnn3ccc(nc23)N[C@H](C)c2cc(F)ccc2O1` ?
resistant
